biological target: UniProtKB P08842; test: STS inhibition in placental microsomes; assay type: biochemical; set-up: a placental microsomal preparation from a sulfatase-positive human placenta from a normal term pregnancy; from tissue; host or cells: human placenta (microsomal preparation); conditions: 0.1 μM inhibitor; 20 μM E1S
Sequence (P08842 22-583): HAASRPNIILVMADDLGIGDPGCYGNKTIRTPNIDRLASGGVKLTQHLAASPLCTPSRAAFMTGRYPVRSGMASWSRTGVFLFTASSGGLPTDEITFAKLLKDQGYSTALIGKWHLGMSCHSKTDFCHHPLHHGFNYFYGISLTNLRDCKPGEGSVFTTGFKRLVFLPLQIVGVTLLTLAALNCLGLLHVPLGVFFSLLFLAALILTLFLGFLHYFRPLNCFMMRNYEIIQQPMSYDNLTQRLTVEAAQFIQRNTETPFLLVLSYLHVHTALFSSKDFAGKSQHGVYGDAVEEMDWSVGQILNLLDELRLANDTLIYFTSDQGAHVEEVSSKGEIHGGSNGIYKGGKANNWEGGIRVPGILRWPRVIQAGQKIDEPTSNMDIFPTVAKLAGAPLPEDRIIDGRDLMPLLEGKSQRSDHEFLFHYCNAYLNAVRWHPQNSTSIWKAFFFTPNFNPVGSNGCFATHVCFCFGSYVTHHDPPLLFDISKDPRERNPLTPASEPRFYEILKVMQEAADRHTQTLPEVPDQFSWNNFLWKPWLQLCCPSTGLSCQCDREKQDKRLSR
quantityMeasured: inhibition at 0.1 µM (%)

[[record]]
molecule = "Cc1c(CCCc2ccccc2)c(=O)oc2cc(OS(N)(=O)=O)ccc12 [compound 43]"
assayvalue = 47

[[record]]
molecule = "CCCCCCCCCCCCc1cc(=O)oc2cc(OS(N)(=O)=O)ccc12 [compound 17, 4-Dodecylcoumarin-7-O-sulfamate]"
assayvalue = 68

[[record]]
molecule = "CCCCCCCCCCCc1cc(=O)oc2cc(OS(N)(=O)=O)ccc12 [compound 16, 4-Undecylcoumarin-7-O-sulfamate]"
assayvalue = 56

[[record]]
molecule = "Cc1c(CCC2CCCCC2)c(=O)oc2cc(OS(N)(=O)=O)ccc12 [compound 45]"
assayvalue = 37

[[record]]
molecule = "CCCCCCc1c(C)c2ccc(OS(N)(=O)=O)cc2oc1=O [compound 29, 3-Hexyl-4-methylcoumarin-7-O-sulfamate]"
assayvalue = 88

[[record]]
molecule = "CCCCCc1cc(=O)oc2cc(OS(N)(=O)=O)ccc12 [compound 10, 4-Pentylcoumarin-7-O-sulfamate]"
assayvalue = 70

[[record]]
molecule = "NS(=O)(=O)Oc1ccc2c(CCl)cc(=O)oc2c1 [compound 21, 4-Chloromethylcoumarin-7-O-sulfamate]"
assayvalue = 19

[[record]]
molecule = "CC(C)c1cc(=O)oc2cc(OS(N)(=O)=O)ccc12 [compound 19, 4-(Prop-2-yl)coumarin-7-O-sulfamate]"
assayvalue = 86

[[record]]
molecule = "CCCCCCCCc1cc(=O)oc2cc(OS(N)(=O)=O)ccc12 [compound 13, 4-Octylcoumarin-7-O-sulfamate]"
assayvalue = 74

[[record]]
molecule = "CCCCCCc1cc(=O)oc2cc(OS(N)(=O)=O)ccc12 [compound 11, 4-Hexylcoumarin-7-O-sulfamate]"
assayvalue = 70

[[record]]
molecule = "CCCCCCCCCc1c(C)c2ccc(OS(N)(=O)=O)cc2oc1=O [compound 32, 4-Methyl-3-nonylcoumarin-7-O-sulfamate]"
assayvalue = 85

